# target: T1, human pIgR extracellular domain (ECD) (human, UniProt P01833 19-638)
# T1 construct: also called hpIgR ECD
# T1 sequence (P01833 other isoform, or with tags, fused parts or gaps): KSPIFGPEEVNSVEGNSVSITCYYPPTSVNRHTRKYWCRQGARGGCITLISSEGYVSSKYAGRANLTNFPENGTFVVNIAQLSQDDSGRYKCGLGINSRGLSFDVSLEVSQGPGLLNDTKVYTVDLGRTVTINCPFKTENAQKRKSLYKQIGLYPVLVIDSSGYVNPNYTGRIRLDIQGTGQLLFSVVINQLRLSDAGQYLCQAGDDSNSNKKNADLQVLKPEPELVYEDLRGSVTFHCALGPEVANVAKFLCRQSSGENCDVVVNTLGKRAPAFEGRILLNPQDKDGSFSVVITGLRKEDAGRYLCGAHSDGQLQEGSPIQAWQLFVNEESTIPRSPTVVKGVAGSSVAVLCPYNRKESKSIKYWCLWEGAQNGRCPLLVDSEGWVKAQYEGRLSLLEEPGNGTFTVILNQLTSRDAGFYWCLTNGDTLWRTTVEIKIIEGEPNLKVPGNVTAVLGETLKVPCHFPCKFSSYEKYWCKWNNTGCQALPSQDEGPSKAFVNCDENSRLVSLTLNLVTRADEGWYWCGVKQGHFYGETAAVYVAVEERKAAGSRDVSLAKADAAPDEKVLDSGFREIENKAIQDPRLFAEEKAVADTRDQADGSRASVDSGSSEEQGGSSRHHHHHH
# test_protocol: BLI; summary table, repeats Table 1
pKd: −log10 of the molar value.
The following binders are listed with their measured pKd values.

[
  {
    "binder": "VHH2-linker-mono-Fc protein (Fc fusion, also called VHH2-mono-Fc; mpIgR_338) EVQVVESGGGLVQAGGSLKLACAAPGLTFSSYRMGWFRQAPGQEREFVAAIDWNGRGTYYRYYADSVKGRSTISRDNAKNTVYLQMNSLKPEDTAVYYCAATTVLTDPRVLNEYATWGQGTQVTVSSEPKTPKPQPQPQLQPQPNPTTESKSPKSPAPELLGGPSVFLFPPKPKDTLMISRTPEVTCVVVDVSHEDPEVKFNWYVDGVEVHNAKTKPREEQYNSTYRVVSVLTVLHQDWLNGKEYKCKVSNKALPAPIEKTISKAKGQPREPQVYTKPPSREEMTKNQVSLSCLVKGFYPSDIAVEWESNGQPENNYKTTVPVLDSDGSFRLASYLTVDKSRWQQGNVFSCSVMHEALHNHYTQKSLSLSPGK",
    "pKd": 7.68
  },
  {
    "binder": "VHH12-linker-mono-Fc protein (Fc fusion, made in CHO cells; also called VHH12-mono-Fc; hpIgR_266) QVQLVETGGGLVQAGDSLRLSCAASGRTLSFNTYAMGWFRQAPGKEREFVASITWNGGSTSYADSVKGRFTITRDNAKNTATLRMNSLQPDDTAVYYCAAARYYVSGTYFPANYWGQGTQVTVSSEPKTPKPQPQPQLQPQPNPTTESKSPKSPAPELLGGPSVFLFPPKPKDTLMISRTPEVTCVVVDVSHEDPEVKFNWYVDGVEVHNAKTKPREEQYNSTYRVVSVLTVLHQDWLNGKEYKCKVSNKALPAPIEKTISKAKGQPREPQVYTKPPSREEMTKNQVSLSCLVKGFYPSDIAVEWESNGQPENNYKTTVPVLDSDGSFRLASYLTVDKSRWQQGNVFSCSVMHEALHNHYTQKSLSLSPGK",
    "pKd": 7.47
  }
]
